# Test system: Human umbilical vein endothelial cells (HUVEC), VEGF-stimulated
# Protocol: Test on the inhibition of VEGF-stimulated HUVEC growth ([3H]thymidine incorporation)
# Format: cell-based
# Details: human recombinant VEGF 10 ng/ml
Recorded Metric: IC50 (µM)
Hi! Could you send only the number? It should be in µM, unit omitted.

*Q* Let me know recorded IC50 for `CCOC(=O)c1cc2c(cc1F)C(=C1C=Cc3ccccc3N1)C(=O)N2` , thanks.
*A* 0.022

*Q* Complete the entry with IC50 for `O=C1Nc2cc(F)ccc2C1=C1C=Cc2cc(OCCN3CCOCC3)ccc2N1`
*A* 0.31

*Q* Output measured IC50 for this item: `COCCOc1ccc2c(c1)C=CC(=C1C(=O)Nc3ccccc31)N2`
*A* 0.034

*Q* Provide one value: measured IC50 of `O=C1Nc2cc(F)c(F)cc2C1=C1C=Cc2cc(OCCN3CCOCC3)ccc2N1`
*A* 0.02

*Q* Provide measured IC50 value, entry: `O=C1Nc2ccc(Cl)cc2C1=C1C=Cc2cc(OCCN3CCOCC3)ccc2N1`
*A* 0.048

* * *

# System: Human umbilical vein endothelial cells (HUVEC), VEGF-stimulated
# Protocol: Test on the inhibition of VEGF-stimulated HUVEC growth ([3H]thymidine incorporation)
# Assay type: cell-based
# Details: human recombinant VEGF 10 ng/ml
# Description: Test method: (Cell culture) Human umbilical vein endothelial cells (HUVEC) were cultured using EGM-2 complete medium (Clonetics) which had been supplemented with additives (2% FBS, 0.4% FGF (fibroblast growth factor), 0.1% VEGF, 0.1% IGF-I (insulin like growth factor-I), 0.1% EGF (epidermal growth factor), 0.1% ascorbic acid, 0.1% GA-1000, 0.1% heparin and 0.04% hydrocortisone). […]
Recorded Metric: pIC50
Scale note: pIC50 = -log10(concentration in M).

*Q* Find the measured pIC50 of `CCOCc1ccc2c(c1)NC(=O)C2=C1C=Cc2ccccc2N1` and report it.
*A* 7.15

*Q* Hello, please tell me recorded pIC50 for this one: `O=C1Nc2ccc(F)cc2C1=C1C=Cc2ccccc2N1`
*A* 9.01

*Q* Check the records and state pIC50 for `CCOC(=O)CCC1=CC(=C2C(=O)Nc3ccccc32)Nc2ccccc21`
*A* 7.49

*Q* Provide pIC50 value for the following molecule: `CCN(CC)CCOc1ccc2c(c1)C(=C1C=Cc3ccccc3N1)C(=O)N2`
*A* 6.12

*Q* # return recorded pIC50 for input `O=C1Nc2ccccc2C1=C1C=Cc2cc(OCCN3CCN(c4ncccn4)CC3)ccc2N1`
*A* 7.38

* * *

# System: Human umbilical vein endothelial cells (HUVEC), VEGF-stimulated
# Protocol: Test on the inhibition of VEGF-stimulated HUVEC growth ([3H]thymidine incorporation)
# Assay type: cell-based
# Details: human recombinant VEGF 10 ng/ml
Recorded Metric: log10(IC50) (log10 of the value in µM)
In plain terms, each number is the log10 of measured IC50 in µM.

*Q* Identify measured log10(IC50) corresponding to O=C1Nc2ccccc2C1=C1C=Cc2c(cccc2OCCN2CCOCC2)N1 [Example 105]
*A* -0.66

*Q* Query log10(IC50) for O=C(NCCCN1CCOCC1)C1=CC(=C2C(=O)Nc3ccccc32)Nc2ccccc21 [Example 163]
*A* -1.37

*Q* Entry O=C1Nc2ccccc2C1=C1C=Cc2cc(C(=O)NCCN3CCOCC3)ccc2N1 [Example 145] needs its log10(IC50) filled in; supply it.
*A* -1.51

*Q* Check the records and state log10(IC50) for O=C1Nc2ccccc2C1=C1C=Cc2cc(OCCCCN3CCOCC3)ccc2N1 [Example 47]
*A* -0.77

*Q* Give the reported value of log10(IC50) for this record: CC1=CC(=C2C(=O)Nc3ccccc32)Nc2ccccc21 [Example 38]
*A* -1.42

*Q* Tell me its log10(IC50) given O=C1Nc2ccccc2C1=C1C=Cc2ccc(OCCN3CCOCC3)cc2N1 [Example 102] as the entry.
*A* -0.39

*Q* Consider the compound CNC(=O)c1ccc2c(c1)C=CC(=C1C(=O)Nc3ccccc31)N2 [Example 149] . State its measured log10(IC50).
*A* -1.14

*Q* Return log10(IC50) for the following compound: O=C1Nc2cc(C(F)(F)F)ccc2C1=C1C=Cc2ccccc2N1 [Example 203]
*A* -2.32

*Q* Output log10(IC50) of N#Cc1ccc2c(c1)NC(=O)C2=C1C=Cc2cc(OCCN3CCOCC3)ccc2N1 [Example 295]
*A* -1.48

*Q* Report measured log10(IC50); entry is O=C1Nc2cc(F)ccc2C1=C1C=Cc2ccccc2N1 [Example 209]
*A* -1.74

*Q* Supply measured log10(IC50) of CCOC(=O)c1ccc2c(c1)NC(=O)C2=C1C=Cc2cc(OCCN3CCOCC3)ccc2N1 [Example 294] in your reply.
*A* -1.92

*Q* Indicate the recorded log10(IC50) value for this compound: O=C1Nc2ccccc2C1=C1C=Cc2cc(OCCN3CCC(n4c(=O)[nH]c5ccccc54)CC3)ccc2N1 [Example 81]
*A* -1.17

*Q* Please list log10(IC50) recorded for the compound N#Cc1ccc2c(c1)NC(=O)C2=C1C=Cc2ccccc2N1 [Example 191]
*A* -1.15

*Q* Return value of log10(IC50) for input Cc1ccc2c(c1)C(=C1C=Cc3ccccc3N1)C(=O)N2 [Example 201] , no commentary.
*A* -0.54

*Q* Supply reported log10(IC50) belonging to this compound: CCOC(=O)c1cc2c(cc1C)C(=C1C=Cc3cc(OCCN4CCOCC4)ccc3N1)C(=O)N2 [Example 301]
*A* -2.12

*Q* Output measured log10(IC50) for this item: O=C1Nc2cc(Cl)ccc2C1=C1C=Cc2cc(OCCN3CCOCC3)ccc2N1 [Example 312]
*A* -1.32

*Q* Provide log10(IC50) value for the following compound: O=C1Nc2ccccc2C1=C1C=C(CO)c2ccccc2N1 [Example 187]
*A* -0.85

*Q* Consider the compound O=C1Nc2ccc(Cl)cc2C1=C1C=Cc2ccccc2N1 [Example 283] . State its measured log10(IC50).
*A* -1.08

*Q* Tell me log10(IC50) reported for CCOC(=O)C1CCN(CCOc2ccc3c(c2)C=CC(=C2C(=O)Nc4ccccc42)N3)CC1 [Example 79]
*A* -1.00

*Q* Provide only the value of recorded log10(IC50) for O=C1Nc2ccccc2C1=C1C=Cc2cc(CNCC3CCCO3)ccc2N1 (stereo not drawn) [Example 111]
*A* -0.52

*Q* Output log10(IC50) of O=C1Nc2ccccc2C1=C1C=Cc2cc(OCCN3CCN(CCO)CC3)ccc2N1 [Example 85]
*A* -0.96

*Q* Tell us which log10(IC50) value is on record for CCN(CC)CCCc1ccc2c(c1)C=CC(=C1C(=O)Nc3ccccc31)N2 [Example 99]
*A* -0.89

*Q* Note down log10(IC50) recorded for O=C(O)CCc1ccc2c(c1)C=CC(=C1C(=O)Nc3ccccc31)N2 [Example 66]
*A* -0.46

*Q* Complete the entry with log10(IC50) for O=C1Nc2cc(Cl)ccc2C1=C1C=Cc2ccccc2N1 [Example 217]
*A* -1.96

*Q* // fetch log10(IC50) given entry O=C1Nc2ccccc2C1=C1C=Cc2cc(OCCNC3CCC(O)CC3)ccc2N1 (stereo not drawn) [Example 57]
*A* -0.14

*Q* Recall and state the measured log10(IC50) for CC(=O)Oc1ccc2c(c1)NC(=O)C2=C1C=Cc2ccccc2N1 [Example 265] .
*A* -0.74

*Q* // fetch log10(IC50) given entry O=C(CCc1ccc2c(c1)C=CC(=C1C(=O)Nc3ccccc31)N2)NOCC1CC1 [Example 144]
*A* -1.03

*Q* Supply recorded log10(IC50) for CN1CCN(CCOc2ccc3c(c2)C=CC(=C2C(=O)Nc4ccccc42)N3)CC1 [Example 41] here.
*A* -0.92

*Q* Indicate the recorded log10(IC50) value for this compound: COc1ccc2c(c1)C=CC(=C1C(=O)Nc3ccccc31)N2 [Example 37]
*A* -0.51

*Q* Supply log10(IC50) value. Item: O=C1Nc2ccc([N+](=O)[O-])cc2C1=C1C=Cc2ccccc2N1 [Example 284]
*A* -0.44

*Q* Indicate the recorded log10(IC50) value for this compound: COc1cc2c(cc1CCCN1CCOCC1)NC(=C1C(=O)Nc3ccccc31)C=C2 [Example 77]
*A* -0.80

*Q* Please report log10(IC50) for the following compound: COCCNCc1ccc2c(c1)C=CC(=C1C(=O)Nc3ccccc31)N2 [Example 112]
*A* -1.00

*Q* Give the measured log10(IC50) for CCN(CC)CCOc1ccc2c(c1)C=CC(=C1C(=O)Nc3ccccc31)N2.O=C(O)CCC(=O)O [Example 44]
*A* -0.55

*Q* Let me know recorded log10(IC50) for O=C1Nc2ccccc2C1=C1C=Cc2cc(CN3CCOCC3)ccc2N1 [Example 54] , thanks.
*A* -1.54

*Q* Indicate the recorded log10(IC50) value for this compound: CN1CCCN(CCOc2ccc3c(c2)C=CC(=C2C(=O)Nc4ccccc42)N3)CC1 [Example 83]
*A* -0.96

*Q* Recall and state the measured log10(IC50) for O=C1Nc2ccccc2C1=C1C=Cc2cc(OCCCN3CCOCC3)ccc2N1 [Example 42] .
*A* -0.96
